- Assay target: murine CCR2 (Mus musculus, UniProt P51683)
- Construct: host or cells: U2OS β-arrestin cell line
- Sequence (P51683 whole entry): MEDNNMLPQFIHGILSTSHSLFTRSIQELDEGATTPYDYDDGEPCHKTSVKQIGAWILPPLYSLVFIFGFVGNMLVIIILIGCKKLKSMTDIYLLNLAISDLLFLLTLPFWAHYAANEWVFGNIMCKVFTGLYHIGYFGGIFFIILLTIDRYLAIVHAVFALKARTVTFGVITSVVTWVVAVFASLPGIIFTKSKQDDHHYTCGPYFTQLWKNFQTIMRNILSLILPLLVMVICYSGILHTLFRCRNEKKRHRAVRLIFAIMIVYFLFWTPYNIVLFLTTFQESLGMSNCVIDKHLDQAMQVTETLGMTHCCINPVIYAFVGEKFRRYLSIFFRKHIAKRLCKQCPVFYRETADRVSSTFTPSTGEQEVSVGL
- Method summary: Functional β-arrestin recruiting test with murine MCP-1 (B-2b)
- Type: cell-based
- Run conditions: U2OS β-arrestin cell line transfected with murine CCR2; agonist murine MCP-1; in some cases means of several determinations
Result type: IC50 (nM)

I = CSc1cnn(-c2nc(C(F)(F)F)c(Oc3ccc(Cl)c(Cl)c3)c(=O)[nH]2)c1 [Example 248]
II = Nc1cnn(-c2nc(C(F)(F)F)c(Cc3ccc(Cl)c(C(F)(F)F)c3)c(=O)[nH]2)c1 [Example 107]
Exercise: For the pair I and II , which entry has the numerically smaller recorded IC50? Identify your selection by its label.
Key: II
(II: 53 nM, I: 1230 nM)

P = COc1c[nH]nc1-c1nc(C(F)(F)F)c(Oc2ccc(Cl)c(C(F)(F)F)c2)c(=O)[nH]1 [Example 214]
Q = Nc1cnc2cnn(-c3nc(C(F)(F)F)c(Oc4ccc(Cl)c(Cl)c4)c(=O)[nH]3)c2c1 [Example 257]
R = O=c1[nH]c(-n2cccn2)nc(C(F)(F)F)c1Cc1ccc(Cl)c(Cl)c1 [Example 53]
S = O=c1[nH]c(-n2cccn2)nc(C(F)(F)F)c1Cc1ccc(Cl)c(C(F)(F)F)c1 [Example 71]
Exercise: Arrange items by their IC50 values in increasing order. List the labels, following the order given in the request.
Key: P, Q, R, S
(P: 8.5 nM, Q: 276 nM, R: 440 nM, S: 1080 nM)

a = O=c1[nH]c(-c2cn[nH]c2)nc(C(F)(F)F)c1Oc1ccc(Cl)c(C(F)(F)F)c1 [Example 70]
b = O=c1[nH]c(-c2cccnc2)nc(C(F)(F)F)c1Cc1ccc(Cl)c(C(F)(F)F)c1 [Example 165]
Exercise: I'm curious whether a or b has the smaller IC50 number. Which is it? Mark your answer with the label of the selected entry.
Key: a
(a: 154 nM, b: 3370 nM)
